# tgt: T1, IGF-IR-Fc (human, UniProt P08069 31-932)
# T1 construct: range 1-932; Made in house by transient transfection, captured on Protein A on CM5 chips for kinetic analysis; also called human IGF-IR-Fc fusion protein; recombinant, immobilized IGF-IR (BIAcore); not shown: hinge and constant regions of human IgG1
# assay-procedure: SPR (BIAcore); IGF-IR-Fc captured on Protein A, clone in solution
property-measured: koff (s⁻¹)

{"columns": ["binder", "property-measured", "recorded-number"],
 "data": [
  ["386A03 (designed binder, FG loop optimized derivative of 338A06) VSDVPRDLEVVAATPTSLLISWSARLKVARYYRITYGETGGNSPVQEFTVPKNVYTATISGLKPGVDYTITVYAVTNLRDYGPISINYRTHHHHHH", "koff", 0.00046],
  ["385A08 (designed binder, FG loop optimized derivative of 338A06; also called clone 385A08; unmodified 385A08) VSDVPRDLEVVAATPTSLLISWSARLKVARYYRITYGETGGNSPVQEFTVPKNVYTATISGLKPGVDYTITVYAVTRFRDYQPISINYRTHHHHHH", "koff", 0.00019],
  ["387B01 (designed binder, FG loop optimized derivative of 338A06) VSDVPRDLEVVAATPTSLLISWSARLKVARYYRITYGETGGNSPVQEFTVPKNVYTATISGLKPGVDYTITVYAVTSLRDYGPISINYRTHHHHHH", "koff", 0.00044],
  ["386F10 (designed binder, FG loop optimized derivative of 338A06) VSDVPRDLEVVAATPTSLLISWSARLKVARYYRITYGETGGNSPVQEFTVPKNVYTATISGLKPGVDYTITVYAVTLLRDYGPISINYRTHHHHHH", "koff", 0.00023]
]}
